Method Summary: In vitro anti-viral activity for HSV-2
Type: cell-based
Cond: HSV-2 assay; toxic concentration that kills 50% of cells; read-out: Anti-HSV-2 Activity TC50
Endpoint Label: CC50 (µM)
Kindly provide the numeric value in µM only, without the unit symbol.

// CC50 value for Fc1ccc(B(Oc2cccc3cccnc23)c2ccc(Cl)cc2)cc1 [Compound 15] : 32.9

----------
Method Summary: In vitro anti-viral activity for HIV-1
Type: cell-based
Cond: HIV-1 assay; toxic concentration that kills 50% of cells; read-out: Anti-HIV-1 Activity TC50
Endpoint Label: CC50 (nM)
Kindly provide the numeric value in nM only, without the unit symbol.

// CC50 value for "Fc1ccc(B(Oc2cccc3cccnc23)c2ccc(Cl)cc2)cc1" : 2500

Origin of the recorded values: patent US7393856B2
